- target desc: Cif (Pseudomonas aeruginosa (strain UCBPP-PA14))
- Sequence (A0A0H2ZD27 25-319 limits assumed): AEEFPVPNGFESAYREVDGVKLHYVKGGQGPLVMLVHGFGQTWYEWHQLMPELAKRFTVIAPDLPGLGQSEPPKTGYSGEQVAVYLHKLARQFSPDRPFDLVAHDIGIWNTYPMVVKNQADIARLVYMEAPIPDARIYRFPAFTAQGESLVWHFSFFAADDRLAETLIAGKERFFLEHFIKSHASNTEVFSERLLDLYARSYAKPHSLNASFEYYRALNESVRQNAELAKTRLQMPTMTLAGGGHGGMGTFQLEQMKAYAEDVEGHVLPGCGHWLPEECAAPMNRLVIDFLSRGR
- experiment description: Fluorescent-based Cif inhibitory assay (CMNGC)
measurement kind: IC50

INSERT INTO assay_data (compound, measurement_kind, reported) VALUES
  ('NC(Cc1ccc(Oc2ccc(O)c(I)c2)c(I)c1)C(=O)O (stereo not drawn) [Entry 4]', 'IC50', '80 µM'),
  ('O=C(NC(=O)c1c(F)cccc1F)Nc1ccc(Cl)c(C(F)(F)F)c1 [Entry 6]', 'IC50', '> 100 µM'),
  ('NC(Cc1cc(I)c(Oc2cc(I)c(O)c(I)c2)c(I)c1)C(=O)O (stereo not drawn) [Entry 6]', 'IC50', '> 100 µM');
